Cited source: PubChem BioAssay (NCI)

system: MDA-MB-468 breast; test: NCI-60 one-dose screen, 48 h; conditions: 10 µM unless noted
Compounds without any hit were thinned out: in the full panel of roughly 83,000, 20% have a hit. Calls of active or inactive are those of the source. How the source made its calls: active means growth percent below 10; inactive means the rest.
Parameter call: string, one of y for active, n for inactive

The examples below pair each entry with its known result.
{"compound": "OCCNc1nc(NCCO)nc(Nc2ccc(C3=NN(c4ccc(Cl)cc4)C(c4ccc(Cl)cc4)C3)cc2)n1 (stereo not given)", "study-system": "MDA-MB-468 breast", "label-class": "n"}
{"compound": "Cc1nc2cc(Nc3nc(N4CCCCC4)nc(N4CCOCC4)n3)ccc2n1Cc1ccccc1", "study-system": "MDA-MB-468 breast", "label-class": "n"}
{"compound": "Cc1ccc(-c2nc(N3CCCNCC3)c3oc(-c4ccccc4)nc3n2)cc1", "study-system": "MDA-MB-468 breast", "label-class": "y"}
{"compound": "O=C(NNc1cnccn1)c1nc2cc(F)ccc2n2cccc12", "study-system": "MDA-MB-468 breast", "label-class": "y"}

Input: Could you kindly confirm the outcome this assay logged for CC(=O)Oc1ccc(OC(C)=O)c2ccccc12 ?
Output: y

###

growth values by entry
system: NCI/ADR-RES ovarian; test: NCI-60 one-dose screen, 48 h (100 = growth as untreated, 0 = no growth, -100 = all killed); settings: 10 µM
The panel holds about 83,000 compounds, 20% with a hit somewhere; the sample as a whole holds those more often.
Give your result in % as a bare value.

# count of solved cases: 5
{"compound": "COc1ccc(C2OC[C@@]3(C)C4CC[C@]5(C)C(CC=C6C7CC(C)(C)CC[C@]7(C(=O)O)CC[C@]65C)[C@@]4(C)C[C@@H](O)[C@@H]3O2)cc1 (stereo partly drawn)", "growth, %": 87.1}
{"compound": "COc1ccc(Cn2cc(C#N)c(N)c2C(C)=O)c(OC)c1", "growth, %": 102}
{"compound": "COc1cc(C2CC(c3ccccc3)=Nc3c(N)nc(N)nc3N2)ccc1Oc1nc(NCCO)nc(N2CCOCC2)n1 (stereo not drawn)", "growth, %": 109}
{"compound": "C#C[C@]1(O)CC[C@H]2[C@@H]3CC=C4c5sc(Nc6ccc(C(F)(F)F)cn6)nc5CC[C@]4(C)[C@H]3CC[C@@]21C", "growth, %": -19.9}
{"compound": "CC1(C)CC[C@]2(C(=O)O)CC[C@]3(C)C(=CCC4[C@@]5(C)C[C@@H](O)[C@@H]6OC(c7cccc(F)c7)OC[C@@]6(C)C5CC[C@]43C)C2C1 (stereo partly drawn)", "growth, %": 43.7}

Input: Which measured growth value corresponds to COc1ccc(C(=O)COc2ccc(NC(=O)Nc3ccc(Cl)c(C(F)(F)F)c3)cc2)cc1 ?
Output: 17.7

###

system: MDA-MB-468 breast; assay: NCI-60 one-dose screen, 48 h; conditions: 10 µM unless noted
About 83,000 compounds went through this panel and 20% of them were active in at least one assay; those are over-represented in the sample as a whole. Calls of active or inactive are those of the source. Rule for the calls: active = growth percent below 10; inactive = the rest.
Parameter call: string, one of y for active, n for inactive

The examples below pair each entry with its known result.
{"molecule": "COc1cccc(-c2nc3sccn3c2-c2ccnc(NCCCNS(=O)(=O)c3ccc(Cl)cc3)c2)c1", "study-system": "MDA-MB-468 breast", "label-class": "n"}
{"molecule": "Nc1nc(Nc2ccccc2SSc2ccccc2Nc2nc(N)nc(-c3ccc(C(F)(F)F)cc3)n2)nc(-c2ccc(C(F)(F)F)cc2)n1", "study-system": "MDA-MB-468 breast", "label-class": "n"}
{"molecule": "Cn1cc(-c2csc(-c3cn(CCNC(=O)OC(C)(C)C)c4ccccc34)n2)c2cccnc21", "study-system": "MDA-MB-468 breast", "label-class": "n"}
{"molecule": "Cc1ccc(Nc2nc(NCCO)c3ccccc3n2)cc1C", "study-system": "MDA-MB-468 breast", "label-class": "n"}

Input: Could you kindly confirm the outcome this assay logged for O=C1Nc2ccccc2/C1=C/C(=O)c1ccc(N2CCOCC2)cc1 ?
Output: n

Input: Another molecule to look at: c1ccc(-c2c(-c3ccccc3)[n+](Cc3ccc4ccccc4c3)c(-c3ccc(-c4nc5ccccc5s4)cc3)n2Cc2ccc3ccccc3c2)cc1
Output: y

Input: Another molecule to look at: CCN(Cc1ccc(CN(CC)C(=O)C(Br)Br)cc1)C(=O)C(Br)Br
Output: n

Input: Another molecule to look at: Cc1cc(C)n(-c2nnc3n2N=C(c2ccc(-c4ccccc4)cc2)CS3)n1
Output: y

Input: Another molecule to look at: CCCCC[C@H](O)C/C=C1/C(=O)C=C[C@@H]1C/C=C\CCCC(=O)OC
Output: n

Input: Another molecule to look at: O=C(/C=C/c1ccc(C(F)(F)F)cc1)c1ccc(Nc2nc(NCCO)nc(N3CCOCC3)n2)cc1
Output: n

Input: Another molecule to look at: NC(=S)N/N=C\c1nccc2c(N)cccc12
Output: y

Input: Another molecule to look at: Cn1ccnc1C(=O)/C=C/c1ccc(C(=O)Nc2ccccc2O)cc1
Output: y

Input: Another molecule to look at: Cc1cc(C)cc(Nc2ccc([N+](=O)[O-])c(NCCN3CCOCC3)n2)c1
Output: n

Input: Another molecule to look at: COc1ccc(C2=NOC(CC(=O)N(CCO)CCO)C2)cc1OC1CCCC1 (stereo unspecified)
Output: n

Input: Another molecule to look at: CCCC1OC(c2ccc(C(C)C)cc2)OCC1CC (stereo unspecified)
Output: n

###

tested on: MDA-MB-468 breast; assay: NCI-60 one-dose screen, 48 h; settings: 10 µM unless noted
The panel holds about 83,000 compounds, 20% with a hit somewhere; the sample as a whole holds those more often. Calls of active or inactive are those of the source. Rule for the calls: active = growth percent below 10; inactive = the rest.
Parameter call: string, one of active, inactive

The examples below pair each entry with its known result.
{"compound": "COc1ccc2nc3cc(Cl)ccc3c(NCCNCC(C)O)c2c1 (stereo not given)", "label-class": "inactive"}
{"compound": "N#Cc1c(NC(=O)c2cccc(C(F)(F)F)c2)sc2c1CCC(=O)C2", "label-class": "active"}
{"compound": "N#Cc1cc(-c2nc3ccccc3s2)c(=O)n(NS(=O)(=O)c2ccccc2)c1N", "label-class": "inactive"}

Input: Could you kindly confirm the outcome this assay logged for CCSc1nc(-c2ccco2)n2nc(-c3ccco3)cc2n1 ?
Output: active

###

system: MDA-MB-468 breast; assay: NCI-60 one-dose screen, 48 h; conditions: 10 µM unless noted
This is part of a sample that, as a whole, favours compounds with a hit. Of some 83,000 tested, about 20% had one in any assay. Activity calls are given as the source filed them. How the source made its calls: active means growth percent below 10; inactive means the rest.
Parameter call: string, one of Y (active), N (inactive)

The examples below pair each entry with its known result.
{"molecule": "Nc1nc2c(s1)CCc1c-2c(Br)n(Cc2ccccc2)c1Br", "label-class": "N"}
{"molecule": "O=C(O)c1ccccc1C(=O)c1ccc(I)cc1", "label-class": "N"}
{"molecule": "CCOC(=O)c1c(C)oc2ncnc(N3CCN(C(=S)Nc4ccccc4)CC3)c12", "label-class": "N"}
{"molecule": "O=[N+]([O-])c1cccc(/C=N/NC(=S)NC23CC4CC(CC(C4)C2)C3)c1", "label-class": "N"}
{"molecule": "C#C[C@]1(O)CC[C@H]2[C@@H]3CC=C4c5sc(Nc6cccc(Cl)n6)nc5CC[C@]4(C)[C@H]3CC[C@@]21C", "label-class": "N"}
{"molecule": "COc1cc2c3cc1Oc1c(OC)c(OC)cc4c1C(Cc1ccc(O)c(c1)Oc1ccc(cc1)CC3N(C)CC2)N(C)CC4 (centres undefined)", "label-class": "Y"}
{"molecule": "N#CCCN1C(=O)CCC1C(=O)O (centres undefined)", "label-class": "N"}
{"molecule": "Cc1ccc(-c2cc(O)c(-c3ccc(C)cc3C)cc2O)c(C)c1", "label-class": "N"}

Input: Could you kindly confirm the outcome this assay logged for COc1ccccc1Nc1nc(-c2cc3cccc(C(F)(F)F)c3oc2=O)cs1 ?
Output: Y

Input: Another molecule to look at: CCN(CC)CCCCCNc1cc(OC(=O)c2ccc(Cl)cc2)cc2cccnc12
Output: N

Input: Another molecule to look at: CS(=O)(=O)c1ccc2c(c1)c1c(n2Cc2ccc(Cl)cc2)CCCC1
Output: N

Input: Another molecule to look at: CN1/C(=C/C=C/c2n(Cc3ccc4ccccc4c3)c(Cl)c(Cl)[n+]2Cc2ccc3ccccc3c2)Oc2ccccc21
Output: Y

Input: Another molecule to look at: Cc1nn(-c2cc(=O)[nH]c3ccccc23)c(N)c1C#N
Output: N

Input: Another molecule to look at: O=S(=O)(Nc1ccccc1Cl)c1ccc(-c2cnc(C3CC3)o2)cc1
Output: Y

###

Tested on: MDA-MB-468 breast
Assay: NCI-60 one-dose screen, 48 h (100 = growth as untreated, 0 = no growth, -100 = all killed)
Conditions: 10 µM unless noted
Protocol: Growth inhibition of the MDA-MB-468 human Breast tumor cell line is measured as a screen for anti-cancer activity. Cells are grown in 96 well plates and exposed to the test compound for 48 hours. Compounds are tested at a single concentration, which is 10^-5 M for most compounds. The reported endpoint is percent growth (GI% or GIPRCNT), where numbers from 0 - 100% represent growth inhibition, and numbers from -100% - 0 represent cell death. […]
This is part of a sample that, as a whole, favours compounds with a hit. Of some 83,000 tested, about 20% had one in any assay.
Note to self: use Y only for growth readings below 50%; a reading exactly at 50% still gets N.

{"molecule": "Nc1ncnc2c1CN(Cc1ccccc1)CC2", "study-system": "MDA-MB-468 breast", "label-class": "N"}
{"molecule": "O=C(/C=C/c1cc2ccccc2[nH]c1=O)c1ccc(Cl)cc1", "study-system": "MDA-MB-468 breast", "label-class": "Y"}
{"molecule": "CC(CN1CCN(CC(C)Nc2ccnc3cc(Cl)ccc23)CC1)Nc1ccnc2cc(Cl)ccc12 (centres undefined)", "study-system": "MDA-MB-468 breast", "label-class": "Y"}
{"molecule": "C[n+]1cc2cc3c(cc2c2ccccc21)OCO3", "study-system": "MDA-MB-468 breast", "label-class": "Y"}
{"molecule": "OCCNc1nc(NCCO)nc(Nc2ccc(C3=NN(c4cc(Cl)cc(Cl)c4)C(c4ccc(C(F)(F)F)cc4)C3)cc2)n1 (centres undefined)", "study-system": "MDA-MB-468 breast", "label-class": "Y"}

Input: In plain terms, does CN1CCN(c2ccc3c(c2)nc(NNC(=O)c2ccncn2)c2cccn23)CC1 come in under 50% for growth?
Output: Y

Input: Another molecule to look at: CC(C)=CCc1c2c(c(O)c3c1O[C@]14C(=C[C@@H]5C[C@H]1C(C)(C)O[C@@]4(C/C=C(/C)C(=O)O)C5=O)C3=O)CC(O)C(C)(C)O2 (some centres undefined)
Output: Y

Input: Another molecule to look at: COc1cc(NC(=O)CSc2nc3ccc(C)cc3c(=O)n2-c2ccccc2)cc(OC)c1OC
Output: N

Input: Another molecule to look at: CCN(CC)c1ccc(NC2=C(Cl)C(=O)c3nc(C)ccc3C2=O)cc1
Output: Y

Input: Another molecule to look at: O=C1c2c(c3c4cccc(F)c4[nH]c3c3ccc4ccccc4c23)C(=O)N1O
Output: N

Input: Another molecule to look at: C1=CC2=CC=C3C=CC=C4C(c5nc6c7ccccc7c7ccccc7c6[nH]5)=CC(=C1)C2C34 (centres undefined)
Output: Y

Input: Another molecule to look at: COc1ccc(Nc2nc(N/N=C/c3ccc(O)cc3)nc(Nc3ccc([N+](=O)[O-])cc3)n2)cc1
Output: N

Input: Another molecule to look at: COc1ccc(-c2ccc(-c3ccc(C(=N)N)cn3)s2)cc1OC
Output: N

Input: Another molecule to look at: O=C(/C=C/c1ccc(F)cc1)Nc1ncc(Cc2ccc(F)cc2)s1
Output: Y
